MEASURED_ON: T1, UNK ZnF1-3 (human, UniProt Q9C0B0 31-174)
T1 sequence: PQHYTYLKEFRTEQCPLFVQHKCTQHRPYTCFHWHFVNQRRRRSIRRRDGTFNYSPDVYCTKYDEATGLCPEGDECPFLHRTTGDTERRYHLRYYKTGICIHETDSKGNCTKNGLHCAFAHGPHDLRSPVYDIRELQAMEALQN
ASSAY_SUMMARY: nsRBNS (natural sequence RNA bind-n-seq); RBNS binding buffer (assumed for nsRBNS): 25 mM Tris pH 7.5, 150 mM KCl, 3 mM MgCl2, 0.01% Triton X-100, 500 ug/ml BSA, 20 U/ml SUPERase-In, 4 C; UNK is unkempt and MSI1 is Musashi-1; names of the RNAs are library labels; protein concentration not given here; high values mean tight binding
The full ranking holds about 24,000 sequences; the median of “enrichment r” is about 0.99, and the highest 2% start at about 3.7. Many of the other results were omitted from the sample, so the highest values are more common in it than they were.
VALUE_KIND: binding signal (enrichment R)
Kindly provide the numeric value in enrichment R only, without the unit symbol.

chr1:220276048:220276049:+_ENSG00000067704_ENST00000302637|hu_hu|hu_hu_hu_mus_True|1_108 (ssRNA) RNA: GGGAGUUCUACAGUCCGACGAUCGCAAACAGCUUCAUUGGCGGGAAUUGUCCAAGGCUGGGUGGUCCAAACUAAAACGCUAACAGGGGAUGAGGCAUCUGUAAGAGACUCCAACUUCGGAGGAGGUCUCAGGAGGGGAAAUUUCAACAGAGGAUUGAGCAUCA :: 1.61
chr17:23874276:23874277:-_ENSMUSG00000023909_ENSMUST00000024702|mus_mus|FALSE|FALSE (ssRNA) RNA: GGGAGUUCUACAGUCCGACGAUCAGAGACUCUCACAGGUUAAACAGGGUAAAUUGGGAAAAAAAAAAAUGGUUUCCUUCUAAUGACAGCAAAACAAUGCCCAGGAGGGAAGAUGGCAAGGAAAGUGGAAGCUGGGGUUUGAAGCAACAGAGGAUUGAGCAUCA :: 4.07
chr17:55760890:55760891:+_ENSG00000153944_ENST00000284073|hu_mus|FALSE|FALSE (ssRNA) RNA: GGGAGUUCUACAGUCCGACGAUCCAAUUUCAUAUGCAAUAUAAUACAGAAAGCAUGGCUGACCUUCAAUUUUAAAAAAAAAUGUAGUAAACUAUAUUGCUUUAUUCUUGAAGAUGCUGCUGCGGUGGGUGGAUGGCAGAGCGACAACAGAGGAUUGAGCAUCA :: 1.14
35472726_35489589_359_3pUTR_ENSMUSG00000029840_ENSMUST00000031866|mouse|control|control (ssRNA) RNA: GGGAGUUCUACAGUCCGACGAUCCUGUCCACAAUCUGCAGCAUAAUGAAGAGGCUUCCUUCCACCCUCUAGUGUCCGGUUGACAUCUUCUCCCUUAGCCACAUAGUCCUUCACCUCAUCCAAGUCUCCGUUUUUCAGGGCCCACAACAGAGGAUUGAGCAUCA :: 0.866
chr11:80063784:80063785:+_ENSMUSG00000017686_ENSMUST00000092857|mus_mus|FALSE|FALSE (ssRNA) RNA: GGGAGUUCUACAGUCCGACGAUCCAUUAGGUUUCUUCCAAGGAGAGACUGAAGAACUCCAGUUUUCCCACAGCCUUUCACUCCAAUUACAUUACACCUGAACACAUUUCUCUGAGUCUGUUUUUUCUGCAGGUCAAUCUUUUUCAACAGAGGAUUGAGCAUCA :: 0.484
chr10:71978566:71978567:-_ENSG00000180817_ENST00000373232|hu_hu|motif|central (ssRNA) RNA: GGGAGUUCUACAGUCCGACGAUCUAAAGGGUCCUUUGUAGCAAUCUCCAUUUUUGCAUUAGACCAGCGUGGUACUUCAACGGCCAUGUGAAACACAUCCUUAUCUGCAUAAAUUGGAAUAUCAUGAAAUGGAGAUAUAUAUUGCAACAGAGGAUUGAGCAUCA :: 0.593

Consider the additional binder presented here.
// query Return value of binding signal for input chrX:7396663:7396664:+_ENSMUSG00000031153_ENSMUST00000132456|mus_mus|motif|central (ssRNA) RNA: GGGAGUUCUACAGUCCGACGAUCGCAAGGGCAUACAUGGAUGGAUCAGUGGGCAGAGGGACAGAUGGCAGACUGAUGGGCGGACCUGGGAAGUUGAUUGGAGGGUAAAAGAGGUGAACACAAAAGGGCGGUAGAUGACUGGAACAACAGAGGAUUGAGCAUCA , no commentary.
// result 2.58
